Biological target: Ecm22 (UniProt Q05958)
Sequence: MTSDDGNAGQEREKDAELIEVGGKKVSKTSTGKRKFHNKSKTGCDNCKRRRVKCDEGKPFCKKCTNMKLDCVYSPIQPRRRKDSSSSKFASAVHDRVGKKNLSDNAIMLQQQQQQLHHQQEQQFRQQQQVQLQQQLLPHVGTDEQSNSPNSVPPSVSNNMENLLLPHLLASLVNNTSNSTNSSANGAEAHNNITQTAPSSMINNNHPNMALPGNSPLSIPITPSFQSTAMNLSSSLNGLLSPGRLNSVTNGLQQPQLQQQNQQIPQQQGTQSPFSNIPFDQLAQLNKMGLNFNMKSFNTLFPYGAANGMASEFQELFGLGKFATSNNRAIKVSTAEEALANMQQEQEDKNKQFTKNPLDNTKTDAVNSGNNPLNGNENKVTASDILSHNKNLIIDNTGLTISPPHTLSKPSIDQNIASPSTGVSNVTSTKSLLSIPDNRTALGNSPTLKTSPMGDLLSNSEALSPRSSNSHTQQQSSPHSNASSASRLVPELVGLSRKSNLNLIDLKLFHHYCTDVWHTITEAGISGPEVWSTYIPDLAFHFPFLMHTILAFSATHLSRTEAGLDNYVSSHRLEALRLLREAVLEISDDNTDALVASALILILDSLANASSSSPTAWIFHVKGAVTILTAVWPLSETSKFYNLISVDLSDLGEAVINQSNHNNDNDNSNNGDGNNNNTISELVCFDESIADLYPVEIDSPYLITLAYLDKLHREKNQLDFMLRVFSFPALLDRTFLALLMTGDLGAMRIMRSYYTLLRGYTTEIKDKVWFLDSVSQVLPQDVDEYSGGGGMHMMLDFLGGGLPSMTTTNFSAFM
Experiment: PBM E-score (8-mer binding enrichment) (E-score (-0.5 to 0.5)); higher = stronger / more preferred TF binding
Conditions: protein concentration: 200 nM; construct: GST-full length
The full ranking holds about 33,000 sequences; the median of “E-score (-0.5 to 0.5)” is about -0.041, and the highest 2% start at about 0.37. The sample as a whole holds a higher share of the highest values than the screen did.
outcome_measure: PBM E-score
The reply should be a number, written without any unit.

AACGTACG    0.378
CGCTCACC    0.112
ACGAGAGT    0.328

Task: Print Ecm22 (UniProt Q05958) PBM E-score for "AATGCAGA" .
Result: -0.0678

Task: Print Ecm22 (UniProt Q05958) PBM E-score for "AGGCTCTC" .
Result: -0.162

* * *

Target: Ecm22 (UniProt Q05958)
Sequence: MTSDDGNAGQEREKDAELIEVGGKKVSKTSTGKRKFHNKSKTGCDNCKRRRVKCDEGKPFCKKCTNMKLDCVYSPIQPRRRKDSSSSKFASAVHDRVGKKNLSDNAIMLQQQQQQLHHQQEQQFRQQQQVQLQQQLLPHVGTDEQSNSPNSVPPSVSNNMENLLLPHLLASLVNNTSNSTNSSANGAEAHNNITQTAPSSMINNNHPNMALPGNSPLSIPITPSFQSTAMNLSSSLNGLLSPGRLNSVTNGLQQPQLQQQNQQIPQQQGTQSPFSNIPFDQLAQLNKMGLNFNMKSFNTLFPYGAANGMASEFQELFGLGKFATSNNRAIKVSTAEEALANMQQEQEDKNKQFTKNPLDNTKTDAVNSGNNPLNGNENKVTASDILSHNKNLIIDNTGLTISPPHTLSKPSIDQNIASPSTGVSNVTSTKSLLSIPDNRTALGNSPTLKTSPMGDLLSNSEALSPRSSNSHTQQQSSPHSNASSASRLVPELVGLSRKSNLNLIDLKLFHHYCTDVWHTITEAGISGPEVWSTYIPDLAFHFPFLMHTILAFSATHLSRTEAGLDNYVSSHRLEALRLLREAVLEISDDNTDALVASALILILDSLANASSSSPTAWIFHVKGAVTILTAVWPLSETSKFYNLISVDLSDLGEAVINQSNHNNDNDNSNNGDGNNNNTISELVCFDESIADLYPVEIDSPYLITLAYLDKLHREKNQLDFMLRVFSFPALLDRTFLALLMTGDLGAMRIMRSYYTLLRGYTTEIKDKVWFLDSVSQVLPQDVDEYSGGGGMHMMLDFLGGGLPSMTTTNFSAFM
Assay: PBM E-score (8-mer binding enrichment) (E-score (-0.5 to 0.5)); higher = stronger / more preferred TF binding
Details: protein concentration: 200 nM; construct: GST-full length
In all, about 33,000 sequences were measured (“E-score (-0.5 to 0.5)”: median about -0.041, highest 2% from about 0.37 on). The entries come from a sample that favours the highest values as a whole.
outcome_measure: PBM E-score
The reply should be a number, written without any unit.

CATGGCGC    -0.137
ATTTTACG    0.392

Please look at the following sequence next.
Task: Could you please provide reported PBM E-score for "ATGCGAGA" ? Thanks!
Result: 0.302

* * *

# PBM E-score annotations
Biological target: Ecm22 (UniProt Q05958)
Sequence: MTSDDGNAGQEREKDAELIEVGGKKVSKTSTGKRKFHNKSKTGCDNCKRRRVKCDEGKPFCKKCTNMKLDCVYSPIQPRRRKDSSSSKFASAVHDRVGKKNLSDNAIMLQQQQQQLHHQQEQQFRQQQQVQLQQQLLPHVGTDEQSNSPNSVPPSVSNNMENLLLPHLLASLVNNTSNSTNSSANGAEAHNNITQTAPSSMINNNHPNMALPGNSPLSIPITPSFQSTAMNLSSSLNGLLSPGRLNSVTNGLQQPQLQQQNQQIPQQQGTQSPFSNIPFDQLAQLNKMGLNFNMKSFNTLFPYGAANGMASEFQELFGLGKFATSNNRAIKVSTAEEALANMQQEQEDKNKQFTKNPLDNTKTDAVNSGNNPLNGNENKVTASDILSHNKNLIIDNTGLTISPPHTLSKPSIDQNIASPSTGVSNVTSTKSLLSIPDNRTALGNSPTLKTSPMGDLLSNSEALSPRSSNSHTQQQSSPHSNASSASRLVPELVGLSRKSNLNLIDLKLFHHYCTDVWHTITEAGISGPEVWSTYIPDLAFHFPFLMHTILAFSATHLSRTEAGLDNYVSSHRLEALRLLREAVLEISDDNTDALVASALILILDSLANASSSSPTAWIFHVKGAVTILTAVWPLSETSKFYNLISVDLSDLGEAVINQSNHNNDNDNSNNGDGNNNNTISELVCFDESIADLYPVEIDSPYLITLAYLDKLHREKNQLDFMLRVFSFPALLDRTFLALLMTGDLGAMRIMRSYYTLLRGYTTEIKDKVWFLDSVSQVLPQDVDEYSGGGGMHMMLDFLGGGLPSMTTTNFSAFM
Test: PBM E-score (8-mer binding enrichment) (E-score (-0.5 to 0.5)); higher = stronger / more preferred TF binding
Details: protein concentration: 200 nM; construct: GST-full length
The full ranking holds about 33,000 sequences; the median of “E-score (-0.5 to 0.5)” is about -0.041, and the highest 2% start at about 0.37. This is one part of a sample in which the highest values are shown more often than they occur.
The reply should be a number, written without any unit.

Example cases with answers are listed next.
ATACGTGA    0.171
ACGAGTTC    0.319

Task: Could you please provide reported PBM E-score for "ACACGATG" ? Thanks!
Result: 0.17

Task: Could you please provide reported PBM E-score for "GGCGGCAC" ? Thanks!
Result: 0.0476

* * *

Target: Ecm22 (UniProt Q05958)
Sequence: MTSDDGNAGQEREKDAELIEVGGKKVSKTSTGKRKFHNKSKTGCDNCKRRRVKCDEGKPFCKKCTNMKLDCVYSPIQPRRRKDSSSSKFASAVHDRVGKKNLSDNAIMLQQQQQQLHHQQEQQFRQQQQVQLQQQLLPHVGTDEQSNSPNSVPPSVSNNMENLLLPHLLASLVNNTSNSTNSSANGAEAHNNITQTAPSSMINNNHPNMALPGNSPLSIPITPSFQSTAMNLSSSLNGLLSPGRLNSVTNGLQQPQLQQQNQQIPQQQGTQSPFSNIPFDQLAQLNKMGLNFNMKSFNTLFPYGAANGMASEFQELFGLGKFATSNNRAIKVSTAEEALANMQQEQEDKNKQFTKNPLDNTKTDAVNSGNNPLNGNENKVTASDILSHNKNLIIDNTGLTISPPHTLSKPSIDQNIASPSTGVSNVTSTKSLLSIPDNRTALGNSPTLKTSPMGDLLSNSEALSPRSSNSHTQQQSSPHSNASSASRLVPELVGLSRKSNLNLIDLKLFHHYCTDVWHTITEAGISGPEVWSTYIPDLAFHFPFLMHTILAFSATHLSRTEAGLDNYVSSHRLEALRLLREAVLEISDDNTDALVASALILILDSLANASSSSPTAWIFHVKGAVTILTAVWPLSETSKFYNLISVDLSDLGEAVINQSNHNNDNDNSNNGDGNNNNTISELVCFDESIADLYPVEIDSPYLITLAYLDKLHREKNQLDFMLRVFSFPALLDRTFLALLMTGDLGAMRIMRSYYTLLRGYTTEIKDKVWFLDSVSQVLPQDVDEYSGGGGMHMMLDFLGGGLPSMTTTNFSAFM
Experiment: PBM E-score (8-mer binding enrichment) (E-score (-0.5 to 0.5)); higher = stronger / more preferred TF binding
Settings: protein concentration: 200 nM; construct: GST-full length
Whole data set: some 33,000 sequences, median “E-score (-0.5 to 0.5)” near -0.041, cut for the highest 2% near 0.37. Only a selection was taken, and the highest values are over-represented in it overall.
Answer Criterion not met if PBM E-score is under 0.1, and Criterion met if it is 0.1 or more.

Solved cases (5 shown):
TCGTAAGA    Criterion met
CAGGTACC    Criterion not met
AGGTCGTC    Criterion met
AGTGCTGG    Criterion not met
GATCGATC    Criterion met

Task: Kindly determine if PBM E-score recorded for "AGATCGTC" is above or exactly 0.1.
Result: Criterion not met

Task: Kindly determine if PBM E-score recorded for "CGCTTGGC" is above or exactly 0.1.
Result: Criterion not met

Task: Kindly determine if PBM E-score recorded for "CGATCGTC" is above or exactly 0.1.
Result: Criterion met

Task: Kindly determine if PBM E-score recorded for "GGCCCGGA" is above or exactly 0.1.
Result: Criterion not met

Task: Kindly determine if PBM E-score recorded for "GGGTCGTA" is above or exactly 0.1.
Result: Criterion met

Task: Kindly determine if PBM E-score recorded for "CGATCGAA" is above or exactly 0.1.
Result: Criterion met

Task: Kindly determine if PBM E-score recorded for "AGATCGTG" is above or exactly 0.1.
Result: Criterion not met
